Tested on: TNFα
Test: cells
Assay type: cell-based, human
Conditions: Homo sapiens, Monocyte, LPS-stimulated human monocytes, TNFα content; read-out: EC50 TNF
Measured log10 EC50 of individual entries
readout-kind: log10 EC50 (log10 of the value in nM)

[
  {
    "compound": "CN(C)C(=O)OC[C@H]1C[C@H](Nc2cc(-c3ccc4cc(C#N)cnn34)ncc2C(=O)NC[C@@H](F)C(C)(C)O)C1",
    "log10 EC50": 1.46
  },
  {
    "compound": "CNC(=O)c1ccc(Nc2cc(-c3ccc4cc(C#N)cnn34)ncc2C(=O)NC[C@@H](F)C(C)(C)O)cn1",
    "log10 EC50": 1.88
  },
  {
    "compound": "CC(C)(O)[C@H](F)CNC(=O)c1cnc(-c2ccc3cc(C#N)cnn23)cc1Nc1cncc(F)c1",
    "log10 EC50": 1.86
  },
  {
    "compound": "CN1CCC[C@@H](Nc2cc(-c3ccc4cc(C#N)cnn34)ncc2C(=O)NC[C@@H](F)C(C)(C)O)C1",
    "log10 EC50": 2.18
  },
  {
    "compound": "CC1(O)CCCC(Nc2cc(-c3ccc4cc(C#N)cnn34)ncc2C(=O)NC[C@@H](F)C(C)(C)O)C1 (single isomer, unassigned)",
    "log10 EC50": 1.81
  },
  {
    "compound": "CC(C)(O)[C@H](F)CNC(=O)c1cnc(-c2ccc3cc(C#N)cnn23)cc1NC1CC2CCC(C1)N2 (stereo partly shown)",
    "log10 EC50": 2.80
  },
  {
    "compound": "CC(C)(O)[C@H](F)CNC(=O)c1cnc(-c2ccc3cc(C#N)cnn23)cc1NC12CCC(N3CCC3=O)(CC1)CC2",
    "log10 EC50": 1.08
  }
]
